Origin of measurements: ChEMBL document CHEMBL3632588

- Procedure text: Antiproliferative activity against mouse LM3 cells after 72 hrs by colorimetry
- Assay type: functional, cell-based
- Settings: LM3, 72 h
Listing of entries alongside the reported IC50.
Reported endpoint: IC50 (µM)

{"Compound structure string": "COC(=O)[C@@H]1N2C(=O)C(Br)(Br)[C@H]2S[C@@]1(C)CSc1nc(-c2ccccc2)c(-c2ccccc2)o1", "Number": 14}
{"Compound structure string": "COC(=O)[C@@H]1N2C(=O)[C@H](Cl)[C@H]2S[C@@]1(C)CSc1nc2ccccc2s1", "Number": 20}
{"Compound structure string": "COC(=O)[C@@H]1N2C(=O)[C@H](Cl)[C@H]2S[C@@]1(C)CSC1=NCCS1", "Number": 20}
{"Compound structure string": "CCOc1ccc2nc(SC[C@]3(C)S[C@@H]4[C@@H](Cl)C(=O)N4[C@H]3C(=O)OC)sc2c1", "Number": 24}

====

- Tested on: HeLa
- Procedure text: Antiproliferative activity against human HeLa cells after 72 hrs by colorimetry
- Format: functional, cell-based
Property: IC50; scope: individual compounds
Reported endpoint: IC50 (µM)

{"Compound structure string": "CCOc1ccc2nc(SC[C@]3(C)S[C@@H]4[C@@H](Cl)C(=O)N4[C@H]3C(=O)OC)sc2c1", "Reported endpoint": "IC50", "Unit text": "µM", "Number": 24}
{"Compound structure string": "COC(=O)[C@@H]1N2C(=O)[C@H](Cl)[C@H]2S[C@@]1(C)CSc1nc(-c2ccccc2)c(-c2ccccc2)o1", "Reported endpoint": "IC50", "Unit text": "µM", "Number": 13}
{"Compound structure string": "COC(=O)[C@@H]1N2C(=O)C(Br)(Br)[C@H]2S[C@@]1(C)CSc1nc(-c2ccccc2)c(-c2ccccc2)o1", "Reported endpoint": "IC50", "Unit text": "µM", "Number": 7}
{"Compound structure string": "COC(=O)[C@@H]1N2C(=O)[C@H](Cl)[C@H]2S[C@@]1(C)CSC1=NCCS1", "Reported endpoint": "IC50", "Unit text": "µM", "Number": 19}
{"Compound structure string": "COC(=O)[C@@H]1N2C(=O)[C@H](Cl)[C@H]2S[C@@]1(C)CSc1nc2ccccc2s1", "Reported endpoint": "IC50", "Unit text": "µM", "Number": 18}

====

- Test system: HeLa
- Procedure text: Ratio of IC50 for mouse NMuMG cells to IC50 for human HeLa cells
Measured Ratio IC50, listed per entry for reference.

{"Compound structure string": "COC(=O)[C@@H]1N2C(=O)[C@H](Cl)[C@H]2S[C@@]1(C)CSc1nc2ccccc2s1", "Ratio IC50": 2}
{"Compound structure string": "CCOc1ccc2nc(SC[C@]3(C)S[C@@H]4[C@@H](Cl)C(=O)N4[C@H]3C(=O)OC)sc2c1", "Ratio IC50": 1.8}
{"Compound structure string": "COC(=O)[C@@H]1N2C(=O)[C@H](Cl)[C@H]2S[C@@]1(C)CSc1nc(-c2ccccc2)c(-c2ccccc2)o1", "Ratio IC50": 2.5}
{"Compound structure string": "COC(=O)[C@@H]1N2C(=O)C(Br)(Br)[C@H]2S[C@@]1(C)CSc1nc(-c2ccccc2)c(-c2ccccc2)o1", "Ratio IC50": 4.4}
{"Compound structure string": "COC(=O)[C@@H]1N2C(=O)[C@H](Cl)[C@H]2S[C@@]1(C)CSC1=NCCS1", "Ratio IC50": 2.2}
